B1: MEF2-activating motif and SAP domain-containing transcriptional regulator, residues 170 to 204; numbered along this chain, Q6ZN01 (parent)
chain: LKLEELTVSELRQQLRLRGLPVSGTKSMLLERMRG

Variants of: B1
Test: abundance fitness (aPCA) (normalised: wild type 0, dead -1); higher = more abundant; growth selection in yeast, the domain comes from the species named
Conditions: Homo sapiens
Readout name: abundance fitness
Number, no unit, nothing else.

query: Find the recorded abundance fitness belonging to `T7A` and report it.
result: -0.519
